# System: 3T3-L1
# Experiment Summary: In vitro glucose transport activity in 3T3-LI adipocytes at 10 uM concentration.
# Assay type: functional, Mus musculus
Measured Glucose transport of individual entries

Compound	Glucose transport [%]
C[n+]1c2ccccc2c(Cl)c2[nH]c3cc(F)ccc3c21.[Cl-]	159
C[n+]1c2ccccc2c(Sc2ccc(Cl)cc2)c2oc3ccccc3c21.O=S(=O)([O-])C(F)(F)F	142
C[n+]1c2ccc(F)cc2c(Nc2ccccc2)c2[nH]c3ccccc3c21.[Cl-]	208
C[n+]1c2ccccc2c(Cl)c2[nH]c3ccc(-c4ccccc4)cc3c21.[Cl-]	190
C[n+]1c2ccccc2c(Cl)c2[nH]c3cccc(F)c3c21.[Cl-]	457
CC[n+]1c2ccccc2cc2[nH]c3ccccc3c21.[Cl-]	228
[Cl-].c1ccc(C[n+]2c3ccccc3cc3[nH]c4ccccc4c32)cc1	781
C[n+]1c2ccc(F)cc2c(-c2ccccc2)c2[nH]c3ccccc3c21.[Cl-]	215
C[n+]1c2ccccc2cc2[nH]c3ccccc3c21.[I-] [CRYPTOLEPTINE IODIDE]	163
C[n+]1c2ccc(F)cc2cc2[nH]c3ccccc3c21.[Cl-]	360

* * *

Measured Glucose transport of individual entries
# System: 3T3-L1
# Experiment Summary: In vitro glucose transport activity in 3T3-LI adipocytes at 30 uM concentration.
# Type: functional, Mus musculus
Reported Metric: Glucose transport (%)

Chemical Smiles	Measured On	Scale Unit	Endpoint Result
C[n+]1c2ccccc2c(Cl)c2[nH]c3ccc(-c4ccccc4)cc3c21.[Cl-]	3T3-L1	%	16
C[n+]1c2ccccc2cc2[nH]c3cc(Cl)c(Br)cc3c21.[Cl-]	3T3-L1	%	0.1
C[n+]1c2ccc(F)cc2cc2[nH]c3ccccc3c21.[Cl-]	3T3-L1	%	443
C[n+]1c2c(c(Cl)c3ccccc31)Cc1ccccc1-2.O=S(=O)([O-])C(F)(F)F	3T3-L1	%	297
C[n+]1c2ccc(Cl)cc2c(Cl)c2[nH]c3ccccc3c21.[Cl-]	3T3-L1	%	215
C[n+]1c2ccccc2c(Cl)c2sc3ccccc3c21.O=S(=O)([O-])C(F)(F)F	3T3-L1	%	110
C[n+]1c2ccc(F)cc2c(-c2ccccc2)c2[nH]c3ccccc3c21.[Cl-]	3T3-L1	%	116
C[n+]1c2ccccc2c(I)c2[nH]c3c(F)cccc3c21.[Cl-]	3T3-L1	%	0.1
COc1cccc2cc3[nH]c4ccccc4c3[n+](C)c12.[Cl-]	3T3-L1	%	543

* * *

# Test system: 3T3-L1
# Experiment Summary: In vitro glucose transport activity in 3T3-LI adipocytes at 10 uM concentration.
# Type: functional, Mus musculus
Measured Glucose transport of individual entries
Reported Metric: Glucose transport (%)

Compound	Reported Metric	Scale Unit	Endpoint Result
C[n+]1c2ccccc2cc2[nH]c3cc(Cl)c(Br)cc3c21.[Cl-]	Glucose transport	%	127
C[n+]1c2ccccc2cc2[n-]c3ccccc3c21.Cl [CRYPTOLEPINE HYDROCHLORIDE]	Glucose transport	%	305
C[n+]1c2ccc(Cl)cc2c(Cl)c2[nH]c3ccccc3c21.[Cl-]	Glucose transport	%	138
C[n+]1c2ccccc2c(Cl)c2[nH]c3ccccc3c21.[Cl-]	Glucose transport	%	101
C[n+]1c2ccc(F)cc2c(Sc2ccc(Cl)cc2)c2[nH]c3ccccc3c21.[Cl-]	Glucose transport	%	154
C[n+]1c2ccc(F)cc2c(Oc2ccccc2)c2[nH]c3ccccc3c21.[Cl-]	Glucose transport	%	207
C[n+]1c2ccccc2c(I)c2[nH]c3ccc(F)cc3c21.[Cl-]	Glucose transport	%	117
COC(=O)c1c2ccccc2[n+](C)c2c3ccccc3n(C)c12.[I-]	Glucose transport	%	207
C[n+]1c2ccccc2c(I)c2[nH]c3c(F)cccc3c21.[Cl-]	Glucose transport	%	255
C[n+]1c2ccc(F)cc2c(Cl)c2[nH]c3ccccc3c21.[Cl-]	Glucose transport	%	224
Fc1ccc(C[n+]2c3ccccc3cc3[nH]c4ccccc4c32)cc1.[Cl-]	Glucose transport	%	248
C[n+]1c2cccc(Cl)c2c(Cl)c2[nH]c3ccccc3c21.[Cl-]	Glucose transport	%	282
C[n+]1c2ccccc2c(Cl)c2oc3ccccc3c21.O=S(=O)([O-])C(F)(F)F	Glucose transport	%	114
C[n+]1c2c(c(Cl)c3ccccc31)Cc1ccccc1-2.O=S(=O)([O-])C(F)(F)F	Glucose transport	%	119

* * *

Measured Change of individual entries
# Tested on: Mus musculus
# Experiment Summary: Change in plasma glucose levels measured in genetically altered obese diabetic mice(db/db) at 100 mg/kg at 3 hr postdose
# Type: functional
Reported Metric: Change

Compound	Measured On	Reported Metric	Endpoint Result
C[n+]1c2ccccc2cc2[n-]c3ccccc3c21.Cl [CRYPTOLEPINE HYDROCHLORIDE]	Mus musculus	Change	-16.4%
C[n+]1c2ccc(F)cc2c(Oc2ccccc2)c2[nH]c3ccccc3c21.[Cl-]	Mus musculus	Change	-11.8%
CC[n+]1c2ccccc2cc2[nH]c3ccccc3c21.[Cl-]	Mus musculus	Change	-23.2%
C[n+]1c2ccccc2c(Cl)c2oc3ccccc3c21.O=S(=O)([O-])C(F)(F)F	Mus musculus	Change	-17.9%

* * *

Measured Glucose transport of individual entries
# System: 3T3-L1
# Experiment Summary: In vitro glucose transport activity in 3T3-LI adipocytes at 3 uM concentration.
# Assay type: functional, Mus musculus

Chemical Smiles	Glucose transport (%)
C[n+]1c2ccc(Cl)cc2c(Cl)c2[nH]c3ccccc3c21.[Cl-]	108
Fc1ccc(C[n+]2c3ccccc3cc3[nH]c4ccccc4c32)cc1.[Cl-]	168
COc1cccc2cc3[nH]c4ccccc4c3[n+](C)c12.[Cl-]	237
C[n+]1c2ccc(F)cc2cc2[nH]c3ccccc3c21.[Cl-]	253
C[n+]1c2ccc(F)cc2c(Nc2ccccc2)c2[nH]c3ccccc3c21.[Cl-]	325
C[n+]1c2ccccc2cc2[nH]c3cc(Cl)c(Br)cc3c21.[Cl-]	104
CCCC[n+]1c2ccccc2cc2[nH]c3ccccc3c21.[Cl-]	561
C[n+]1c2ccc(F)cc2c(Sc2ccc(Cl)cc2)c2[nH]c3ccccc3c21.[Cl-]	128
COC(=O)c1c2ccccc2[n+](C)c2c1[nH]c1ccccc12.[I-]	63
C[n+]1c2c(c(Sc3ccc(Cl)cc3)c3ccccc31)Cc1ccccc1-2.O=S(=O)([O-])C(F)(F)F	108

* * *

# Test system: 3T3-L1
# Experiment Summary: In vitro glucose transport activity in 3T3-LI adipocytes at 30 uM concentration.
# Type: functional, Mus musculus
Please use the following Glucose transport ranges when assigning a class: low (below 6%), mid (6% to below 300%), high (300% or more)

Molecule	Measured On	Group
CCCC[n+]1c2ccccc2cc2[nH]c3ccccc3c21.[Cl-]	3T3-L1	high
C[n+]1c2ccccc2cc2[n-]c3ccccc3c21.Cl [CRYPTOLEPINE HYDROCHLORIDE]	3T3-L1	high
[Cl-].c1ccc(C[n+]2c3ccccc3cc3[nH]c4ccccc4c32)cc1	3T3-L1	mid
C[n+]1c2ccccc2c(Cl)c2[nH]c3cccc(F)c3c21.[Cl-]	3T3-L1	mid
Fc1ccc(C[n+]2c3ccccc3cc3[nH]c4ccccc4c32)cc1.[Cl-]	3T3-L1	high
C[n+]1c2ccc(F)cc2c(Cl)c2[nH]c3ccccc3c21.[Cl-]	3T3-L1	low
COC(=O)c1c2ccccc2[n+](C)c2c1[nH]c1ccccc12.[I-]	3T3-L1	high
C[n+]1c2ccccc2c(Cl)c2oc3ccccc3c21.O=S(=O)([O-])C(F)(F)F	3T3-L1	mid
C[n+]1c2ccc(F)cc2c(Sc2ccc(Cl)cc2)c2[nH]c3ccccc3c21.[Cl-]	3T3-L1	mid
C[n+]1c2c(c(Sc3ccc(Cl)cc3)c3ccccc31)Cc1ccccc1-2.O=S(=O)([O-])C(F)(F)F	3T3-L1	mid
CC[n+]1c2ccccc2cc2[nH]c3ccccc3c21.[Cl-]	3T3-L1	high
C[n+]1c2ccc(F)cc2c(Nc2ccccc2)c2[nH]c3ccccc3c21.[Cl-]	3T3-L1	low
C[n+]1c2cccc(Cl)c2c(Cl)c2[nH]c3ccccc3c21.[Cl-]	3T3-L1	high
C[n+]1c2ccc(F)cc2c(Oc2ccccc2)c2[nH]c3ccccc3c21.[Cl-]	3T3-L1	low
C[n+]1c2ccccc2c(Cl)c2[nH]c3ccccc3c21.[Cl-]	3T3-L1	low
C[n+]1c2ccccc2c(Sc2ccc(Cl)cc2)c2oc3ccccc3c21.O=S(=O)([O-])C(F)(F)F	3T3-L1	mid
C[n+]1c2ccccc2cc2[nH]c3ccccc3c21.[I-] [CRYPTOLEPTINE IODIDE]	3T3-L1	mid
COC(=O)c1c2ccccc2[n+](C)c2c3ccccc3n(C)c12.[I-]	3T3-L1	mid
C[n+]1c2ccccc2c(I)c2[nH]c3ccc(F)cc3c21.[Cl-]	3T3-L1	low

* * *

# Tested on: 3T3-L1
# Experiment Summary: In vitro glucose transport activity in 3T3-LI adipocytes at 3 uM concentration.
# Type: functional, Mus musculus
Measured Glucose transport of individual entries

Compound	Scale Unit	Glucose transport
[Cl-].c1ccc(C[n+]2c3ccccc3cc3[nH]c4ccccc4c32)cc1	%	611
C[n+]1c2ccc(F)cc2c(Oc2ccccc2)c2[nH]c3ccccc3c21.[Cl-]	%	140
C[n+]1c2ccccc2cc2[nH]c3ccccc3c21.[I-] [CRYPTOLEPTINE IODIDE]	%	134
C[n+]1c2ccccc2c(I)c2[nH]c3c(F)cccc3c21.[Cl-]	%	129
C[n+]1c2ccc(F)cc2c(Cl)c2[nH]c3ccccc3c21.[Cl-]	%	142
COC(=O)c1c2ccccc2[n+](C)c2c3ccccc3n(C)c12.[I-]	%	155
C[n+]1c2ccccc2c(Cl)c2[nH]c3cccc(F)c3c21.[Cl-]	%	143
C[n+]1c2ccccc2c(Cl)c2sc3ccccc3c21.O=S(=O)([O-])C(F)(F)F	%	96
C[n+]1c2ccccc2c(Cl)c2[nH]c3cc(F)ccc3c21.[Cl-]	%	107
CC[n+]1c2ccccc2cc2[nH]c3ccccc3c21.[Cl-]	%	197
C[n+]1c2c(c(Cl)c3ccccc31)Cc1ccccc1-2.O=S(=O)([O-])C(F)(F)F	%	125
